Tested on: LOX IMVI melanoma
Test: NCI-60 one-dose screen, 48 h
Conditions: 10 µM unless noted
Description: Growth inhibition of the LOX IMVI human tumor cell line is measured as a screen for anti-cancer activity. Cells are grown in 96 well plates and exposed to the test compound for 48 hours. Compounds are tested at a single concentration, which is 10^-5 M for most compounds. The reported endpoint is percent growth (GI% or GIPRCNT), where numbers from 0 - 100% represent growth inhibition, and numbers from -100% - 0 represent cell death. For example, a value of 40 represents 60% growth inhibition. […]
This is part of a sample that, as a whole, favours compounds with a hit. Of some 83,000 tested, about 20% had one in any assay. Activity calls are given as the source filed them. The calls were made as follows: active = growth percent below 10; inactive = the rest.
Permitted responses: active, inactive

cpd.smiles	category
Cc1c(C(=O)OC(=NC2CCCCC2)NC2CCCCC2)sc2c1c(=O)nc1c(C#N)n[nH]n12	inactive
O=C(CCCCCCSc1nc(-c2ccccc2)cc(-c2ccc(Cl)cc2)n1)NO	active
CN(Cc1cnc2nc(N)nc(N)c2n1)c1ccc(C(=O)N[C@@H](CCc2nn[nH]n2)c2nn[nH]n2)cc1	inactive
Cc1c(C)c2c(c(C)c1OCC(=O)O)CC[C@@](C)(CCC[C@@H](C)CCC[C@@H](C)CCCC(C)C)O2	active
Cc1ccc(C(=O)CSc2nc(-c3ccc(Br)cc3)c(C#N)c(=O)[nH]2)cc1	inactive

Hello, I am checking results. What call was entered for NCCCNc1nc2ccccc2c2c(=O)c3cccc(Cl)c3sc12 ?
active

Test call, this compound: COc1ccc(-c2cc(-c3cc(OC)c(OC)c(OC)c3)c(C#N)c(N3CCOCC3)n2)cc1O
inactive

Returns: the outcome recorded for COc1ccc(CN2C(=O)C(Cl)=C(Nc3cccc(C(F)(F)F)c3)C2=O)cc1 in this assay.
inactive

# lookup: test call for COc1cccc(-c2nn(-c3ccccc3)cc2-c2ccnc(NCCCNC(=O)c3ccc(F)cc3)c2)c1
inactive

----------
test system: NCI/ADR-RES ovarian; test: NCI-60 one-dose screen, 48 h (100 = growth as untreated, 0 = no growth, -100 = all killed); conditions: 10 µM unless noted
Compounds without any hit were thinned out: in the full panel of roughly 83,000, 20% have a hit.
For each of the compounds below, state its growth.
Numbers only, in %.

Examples with their reported growth follow.
compound	readout.label	measured
CN(C)c1ccc(-c2cc(-c3ccc(Nc4nc(Nc5ccc(Cl)cc5)nc(Nc5ccc(Cl)cc5)n4)cc3)no2)cc1	growth	41.1
CCOc1ccccc1-n1c(CN2CCN(C(=O)COc3ccc(CNCCCCCCN4C5CCCC4CC(OC(=O)Nc4cc(C)ccc4OC)C5)cc3)CC2)nc2ccccc2c1=O (stereo not drawn)	growth	67
C=C1C(=O)O[C@H]2[C@H]1CC/C(CNC(=O)/C=C/c1ccc(Cl)cc1Cl)=C\CC[C@@]1(C)O[C@@H]21	growth	2.07

Go through the list and state growth for each entry.
1. COc1cc(-c2nn(-c3ccccc3)cc2-c2ccnc(NCCNS(=O)(=O)c3ccc(Cl)cc3)n2)ccc1Cl
2. O=C(CCCCCCN1CC(=O)N2[C@@H](c3ccccc3Cl)c3[nH]c4ccccc4c3C[C@H]2C1=O)NO
3. O=C(CSc1nnc(-c2ccc(NC(=O)c3cccnc3)cc2)o1)Nc1cccc(Br)c1

1. 31.7
2. 89.8
3. 93.8

Each compound below has a reported value. Please supply its growth.
1. N#Cc1c2c(nn(-c3ccccc3)c1=O)C(O)=C([N+](=O)[O-])C(c1ccccc1)C2 (stereo not drawn)
2. CC(=O)n1c(-c2ccc(Cl)cc2)nc2c(c1=O)C(c1ccc(Cl)cc1)c1sc3c(Cl)cccc3c1O2 (stereo not drawn)

93.5
-17.2

Source listed as PubChem BioAssay (NCI).
